# Tested on: mitochondrial membrane potential
# Assay type: cell-based, mouse
# Condition parameters: composite Z-score vs mock-treated (DMSO) wells; Conc 20 μM

{"Compound": "Cc1cc(O)c(C=O)c2c1C(=O)Oc1c(C)c(O)c3c(c1O2)C(O)OC3=O (stereo not shown)", "ΔΨm": 0.903}
{"Compound": "CC(=O)O[C@@H]1CC2C(C)(C)[C@H](O)C=C[C@]2(C)C2CC[C@@]3(C)[C@H](c4ccoc4)OC(=O)C4OC43[C@@]21C (stereo partly shown)", "ΔΨm": 0.897}
{"Compound": "CC1(C)C(=O)C=C[C@]2(C)[C@H]3CC[C@@]4(C)[C@H](c5ccoc5)OC(=O)[C@H]5O[C@]54[C@]3(C)C(=O)C[C@@H]12", "ΔΨm": 1.322}
{"Compound": "C=CC(C1=CC(=O)C(OC)=CC1=O)c1ccc(O)cc1 (stereo not shown) [4-methoxy-4′-hydroxy-dalbergione]", "ΔΨm": 0.406}
{"Compound": "CC(C)=CCc1c(O)cc2oc(C)cc(=O)c2c1O", "ΔΨm": "−0.057"}
{"Compound": "COC(=O)C[C@H]1C(C)(C)C(=O)[C@@H]2CC3C4=CC(=O)O[C@@H](c5ccoc5)[C@]4(C)CC[C@@H]3[C@@]1(C)C2=O (stereo partly shown)", "ΔΨm": "−0.524"}
{"Compound": "COc1cc2c(cc1OC)[C@@H]1C(=O)c3ccc(OC)c(CC=C(C)C)c3O[C@@H]1CO2", "ΔΨm": "−3.751"}

====

# System: C2C12 myotubes
# Condition parameters: composite Z-score vs mock-treated (DMSO) wells; Conc 20 μM
Listing: Viability of selected molecules
Property name: Viability

{"Molecule": "C=C1C[C@]23C[C@@]1(O)CC[C@H]2[C@@]12C=C[C@H](O)[C@@](C)(C(=O)O1)[C@H]2[C@@H]3C(=O)O [gibberellic acid]", "Property name": "Viability", "Measured number": "−0.081"}
{"Molecule": "C[C@@H]([C@H]1OC(C)(C)[C@@H](O)[C@H]1O)[C@@H]1CC[C@]2(C)C3=CC[C@H]4C(C)(C)C(=O)CC[C@]4(C)[C@H]3CC[C@@]12C [odoratone]", "Property name": "Viability", "Measured number": 0.542}
{"Molecule": "COC(=O)C[C@H]1C(C)(C)C(=O)[C@@H]2CC3C4=CC(=O)O[C@@H](c5ccoc5)[C@]4(C)CC[C@@H]3[C@@]1(C)C2=O (stereo partly shown) [carapin]", "Property name": "Viability", "Measured number": 1.424}
{"Molecule": "CCOC(=O)c1c(C)cc(O)c(C=O)c1O [haematommic acid, ethyl ester]", "Property name": "Viability", "Measured number": "−0.557"}
{"Molecule": "COc1cc(O)c(C(=O)c2ccccc2)cc1O [cearoin]", "Property name": "Viability", "Measured number": "−1.078"}
{"Molecule": "CC=Cc1ccc2c(c1)OCO2 [isosafrole]", "Property name": "Viability", "Measured number": "−0.798"}
{"Molecule": "CC(=O)[C@H]1CC[C@H]2[C@@H]3CCC4C[C@H](O)CC[C@]4(C)[C@H]3C[C@H](O)[C@]12C (stereo partly drawn) [dihydroxy (3alpha,12alpha)pregnan-20-one]", "Property name": "Viability", "Measured number": "−0.622"}
